Tested on: SNB-75 CNS
Test: NCI-60 one-dose screen, 48 h (100 = growth as untreated, 0 = no growth, -100 = all killed)
Conditions: 10 µM unless noted
Compounds without any hit were thinned out: in the full panel of roughly 83,000, 20% have a hit. Active and inactive are the calls of the source. The calls were made as follows: active = growth percent below 10; inactive = the rest.
PARAMETER: growth

MOLECULE	RESULT
Cn1cc(-c2nnc(N)nc2-c2c[nH]c3ccc(F)cc23)c2cc(Br)ccc21	0.251% (active)

Param readout= growth; system= SNB-75 CNS; entry= `O=C(/C=C/c1cccc(Br)c1)c1cccc(OCCCCOc2cccc(C(=O)/C=C/c3cccc(Br)c3)c2)c1` ; returns value. 96.8% (inactive)

Form field - read-out: growth; system: SNB-75 CNS; submitted item: `Clc1ccc2[nH]cc(-c3cncn3CCc3ccc4c(c3)OCO4)c2c1` 73.8% (inactive)

Lab note: need growth for `CN(C)S(=O)(=O)c1ccc(-c2nc(C(Cl)Cl)nc3cc(-c4ccc(F)cc4)nn23)cc1` on SNB-75 CNS, anyone have it? 48.3% (inactive)

Please state recorded growth (tested on SNB-75 CNS) of `O=C(CCCCCCNC(=O)C(O)(O)C(F)(F)F)Nc1ccc(Br)cc1` 33.9% (inactive)

Could you share what growth was measured for `O=[N+]([O-])c1ccc(NC(=S)NNC(=S)Nc2ccc(Br)cc2)cc1` , tested on SNB-75 CNS? 121% (inactive)

Request: growth, test system SNB-75 CNS, entry `CN1CCN(c2ccc(Nc3nc(NCCNC(=O)c4ccc(F)cc4)c4sccc4n3)cc2)CC1` 91.5% (inactive)

API: value(readout=growth, system=SNB-75 CNS) for record `C#Cc1nc(/C=C\CCCCCCC(=O)NO)cs1` -57.7% (active)

Given the entry `Clc1ccc2[nH]cc(-c3nn4cc(-c5cccnc5)nc4s3)c2c1` , what growth was observed with SNB-75 CNS? 90.5% (inactive)

SNB-75 CNS / growth / `O=C(N/N=C\c1ccc(F)cc1)c1ccc2nc(-c3ccc(Br)cc3)[nH]c2c1` : value? 53.7% (inactive)

What is its growth for SNB-75 CNS? Entry: `COc1ccc2[nH]cc(-c3nc(N)nnc3-c3cn(C)c4ccc(Br)cc34)c2c1` -4.14% (active)

Report growth for `O=C1[C@@H]2Cc3c([nH]c4ccccc34)[C@H](c3ccc(Cl)cc3)N2C(=O)CN1C1CCN(Cc2ccccc2)CC1` tested on SNB-75 CNS. 43.8% (inactive)

Give recorded growth with SNB-75 CNS for the following molecule: `Nc1ccc(Nc2ncnc3sc4c(c23)CCN(Cc2ccccc2)C4)cc1` 88.7% (inactive)

Provide the documented growth with SNB-75 CNS as the system for `CCC(=C(c1ccc(OCCN2CCCCCC2)cc1)c1ccc(OCCN2CCCCCC2)cc1)c1ccc(Cl)cc1` 62% (inactive)

Enter reported growth observed with SNB-75 CNS for `CN1CCN(Cc2ccc(NC(=O)c3cncc(C#Cc4cnc5ccc(NCCO)nn45)c3)cc2C(F)(F)F)CC1` -90.5% (active)

Param readout= growth; system= SNB-75 CNS; entry= `CCOP(=O)(OCC)OC[C@]12CCC(C)(C)C[C@H]1C1=CC[C@@H]3[C@@]4(C)CC[C@H](OP(=O)(OCC)OCC)C(C)(C)[C@@H]4CC[C@@]3(C)[C@]1(C)CC2` ; returns value. 58.9% (inactive)
